# target.or.test.system: NDM-1 (Klebsiella pneumoniae)
# Sequence (C7C422 whole entry, looked up, species assumed): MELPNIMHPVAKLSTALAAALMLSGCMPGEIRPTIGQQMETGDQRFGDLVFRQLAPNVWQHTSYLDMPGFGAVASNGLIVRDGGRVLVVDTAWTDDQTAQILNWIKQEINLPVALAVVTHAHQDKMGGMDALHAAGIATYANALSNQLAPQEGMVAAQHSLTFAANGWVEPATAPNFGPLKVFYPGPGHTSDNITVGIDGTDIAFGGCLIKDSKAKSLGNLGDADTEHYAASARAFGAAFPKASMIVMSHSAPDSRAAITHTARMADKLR
# assay.explanation: IC50 determination against purified MBL, nitrocefin reporter substrate
# Assay type: biochemical
# particulars: purified enzyme 1 nM, nitrocefin 50 μM, 25° C.
This section presents compounds with their documented IC50 values.
Reply with just the number (in µM).

{"line.notation": "COc1ccc(Cn2cc(CN(Cc3ccccn3)Cc3ccccn3)nn2)cc1[N+](=O)[O-]", "units.symbol": "µM", "IC50": 1.06}
{"line.notation": "COc1ccc(Cn2cc(CN(Cc3ccccn3)Cc3ccccn3)nn2)cc1Br", "units.symbol": "µM", "IC50": 0.6}
{"line.notation": "COc1ccc(-n2cc(CN(Cc3ccccn3)Cc3ccccn3)nn2)cc1", "units.symbol": "µM", "IC50": 0.72}

Now for the compound whose IC50 we want.
Lab book: IC50 of C[C@@H](N)C(=O)N[C@H](C)C(=O)NCCc1ccc(NC(=O)CN(Cc2ccccn2)Cc2ccccn2)cc1.Cl noted as 0.52

----------
# target.or.test.system: UniProt Q5U7L7
# assay.explanation: IC50 determination against purified MBL, nitrocefin reporter substrate
# Format: biochemical
# particulars: purified enzyme 1 nM, nitrocefin 50 μM, 25° C.
measurement.kind: IC50

Known results for compounds:
{"compound": "COc1ccc(Cn2cc(CN(Cc3ccccn3)Cc3ccccn3)nn2)cc1Br", "IC50": "19 µM"}
{"compound": "FC(F)(F)c1ccc(-n2cc(CN(Cc3ccccn3)Cc3ccccn3)nn2)cc1", "IC50": "12.9 µM"}
{"compound": "C[C@@H](N)C(=O)N[C@H](C)C(=O)NCCc1ccc(NC(=O)CN(Cc2ccccn2)Cc2ccccn2)cc1.Cl", "IC50": "22.8 µM"}
{"compound": "COc1cc(-n2cc(CN(Cc3ccccn3)Cc3ccccn3)nn2)cc(OC)c1OC", "IC50": "11.5 µM"}
{"compound": "COc1ccc(-n2cc(CN(Cc3ccccn3)Cc3ccccn3)nn2)c(OC)c1", "IC50": "12.2 µM"}

// field: IC50; key: COc1ccc(Cn2cc(CN(Cc3ccccn3)Cc3ccccn3)nn2)cc1 ; value = 19.8 µM

----------
Below is a list of entries, each paired with its recorded IC50 value.
# target.or.test.system: GIM-1 (Pseudomonas aeruginosa)
# Sequence (Q704V1 19-250 limits assumed): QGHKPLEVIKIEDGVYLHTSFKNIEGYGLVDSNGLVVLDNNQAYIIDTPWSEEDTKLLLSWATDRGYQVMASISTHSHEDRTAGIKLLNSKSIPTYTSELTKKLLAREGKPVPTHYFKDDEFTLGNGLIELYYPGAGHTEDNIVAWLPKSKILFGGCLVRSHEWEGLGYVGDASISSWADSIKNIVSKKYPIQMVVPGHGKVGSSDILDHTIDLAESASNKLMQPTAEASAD
# assay.explanation: IC50 determination against purified MBL, nitrocefin reporter substrate
# Format: biochemical
# particulars: purified enzyme 1 nM, nitrocefin 50 μM, 25° C.
The reply should be a number in µM, with the unit left off.

Please fill in: IC50 reported for FC(F)(F)c1ccc(-n2cc(CN(Cc3ccccn3)Cc3ccccn3)nn2)cc1 [Example 12] = 1.1

Entry under test: COc1ccc(Cn2cc(CN(Cc3ccccn3)Cc3ccccn3)nn2)cc1Br [Example 9] . Its IC50 was 3.15

Recorded result, COc1ccc(-n2cc(CN(Cc3ccccn3)Cc3ccccn3)nn2)cc1 [Example 13] , IC50: 1.43

Briefly, IC50 measured for c1ccc(CN(CCN(Cc2ccccn2)Cc2ccccn2)Cc2ccccn2)nc1 [TPEN, reference compound] : 0.61

response.value for C[C@@H](N)C(=O)N[C@H](C)C(=O)NCCc1ccc(NC(=O)CN(Cc2ccccn2)Cc2ccccn2)cc1.Cl [Example 24] (field: IC50) = 0.4

COc1cc(Cn2cc(CN(Cc3ccccn3)Cc3ccccn3)nn2)cc(OC)c1OC [Example 7] has a reported IC50 of 0.14

So for COc1ccc(-n2cc(CN(Cc3ccccn3)Cc3ccccn3)nn2)c(OC)c1 [Example 11] , the logged IC50 turned out to be 0.86

IC50 reported for this compound COc1cc(-n2cc(CN(Cc3ccccn3)Cc3ccccn3)nn2)cc(OC)c1OC [Example 5] : 0.79

Given item COc1ccc(Cn2cc(CN(Cc3ccccn3)Cc3ccccn3)nn2)cc1[N+](=O)[O-] [Example 8] , the value recorded as its IC50 is 1.03

The recorded IC50 for O=[N+]([O-])c1ccc(Cn2cc(CN(Cc3ccccn3)Cc3ccccn3)nn2)cc1 [Example 6] is 0.71
